The reported measurements were obtained from paper PMC9686516.

Assay: Colistin pharmacokinetics in epithelial lining fluid (ELF) after nebulized CMS in ventilated VARI patients
Assay type: in vivo, human
Details: human, epithelial lining fluid (ELF), inhaled or intranasal, 2 mIU, ELF; 4 h post-nebulization; VMN, n = 18; 2 mIU CMS inhaled; median (IQR); read-out: Ccolistin,ELF
Where a SMILES comes first, the peptide text is derived from it. Bridges are numbered along the chain shown (N, C = ends). [ ]: non-standard residue; d: D form. The star is where a group is joined. X1 = CC[C@H](C)CCCCC(=O)*; Dab = NCC[C@H](N)C(=O)O
METRIC NAME: level at 4 h (ng/mL)
Quick reminder: number only, in ng/mL, skip the unit.

Prompt: Supply recorded level at 4 h for CC[C@H](C)CCCCC(=O)N[C@@H](CCN)C(=O)N[C@H](C(=O)N[C@@H](CCN)C(=O)N[C@H]1CCNC(=O)[C@H]([C@@H](C)O)NC(=O)[C@H](CCN)NC(=O)[C@H](CCN)NC(=O)[C@H](CC(C)C)NC(=O)[C@@H](CC(C)C)NC(=O)[C@H](CCN)NC1=O)[C@@H](C)O [colistin] (X1-[Dab]T[Dab][Dab][Dab][dL]L[Dab][Dab]T; lactam 4-C) here.
Completion: 2100

----------
Assay: Colistin pharmacokinetics in plasma after nebulized CMS in ventilated VARI patients
Type: in vivo, human
Conditions: human, inhaled or intranasal, 2 mIU, 8 h post-nebulization, VMN, n = 18, 2 mIU CMS inhaled, median (IQR), read-out: Ccolistin, plasma
Where a SMILES comes first, the peptide text is derived from it. Bridges are numbered along the chain shown (N, C = ends). [ ]: non-standard residue; d: D form. The star is where a group is joined. X1 = CC[C@H](C)CCCCC(=O)*; Dab = NCC[C@H](N)C(=O)O
METRIC NAME: level at 8 h
I'd appreciate it if you wrote the number followed by its unit.

Prompt: Supply recorded level at 8 h for CC[C@H](C)CCCCC(=O)N[C@@H](CCN)C(=O)N[C@H](C(=O)N[C@@H](CCN)C(=O)N[C@H]1CCNC(=O)[C@H]([C@@H](C)O)NC(=O)[C@H](CCN)NC(=O)[C@H](CCN)NC(=O)[C@H](CC(C)C)NC(=O)[C@@H](CC(C)C)NC(=O)[C@H](CCN)NC1=O)[C@@H](C)O [colistin] (X1-[Dab]T[Dab][Dab][Dab][dL]L[Dab][Dab]T; lactam 4-C) here.
Completion: 200 ng/mL

----------
Assay: Colistin pharmacokinetics in epithelial lining fluid (ELF) after nebulized CMS in ventilated VARI patients
Type: in vivo, human
Conditions: human, epithelial lining fluid (ELF), inhaled or intranasal, 2 mIU, ELF; 1 h post-nebulization; JN, n = 6; 2 mIU CMS inhaled; median (IQR); read-out: Ccolistin,ELF
Where a SMILES comes first, the peptide text is derived from it. Bridges are numbered along the chain shown (N, C = ends). [ ]: non-standard residue; d: D form. The star is where a group is joined. X1 = CC[C@H](C)CCCCC(=O)*; Dab = NCC[C@H](N)C(=O)O
METRIC NAME: level at 1 h (ng/mL)
Quick reminder: number only, in ng/mL, skip the unit.

Prompt: Supply recorded level at 1 h for CC[C@H](C)CCCCC(=O)N[C@@H](CCN)C(=O)N[C@H](C(=O)N[C@@H](CCN)C(=O)N[C@H]1CCNC(=O)[C@H]([C@@H](C)O)NC(=O)[C@H](CCN)NC(=O)[C@H](CCN)NC(=O)[C@H](CC(C)C)NC(=O)[C@@H](CC(C)C)NC(=O)[C@H](CCN)NC1=O)[C@@H](C)O [colistin] (X1-[Dab]T[Dab][Dab][Dab][dL]L[Dab][Dab]T; lactam 4-C) here.
Completion: 1200

----------
Experiment: Colistin pharmacokinetics in plasma after nebulized CMS in ventilated VARI patients
Format: in vivo, human
Settings: human, inhaled or intranasal, 2 mIU, 1 h post-nebulization, JN, n = 6, 2 mIU CMS inhaled, median (IQR), read-out: Ccolistin, plasma
Where a SMILES comes first, the peptide text is derived from it. Bridges are numbered along the chain shown (N, C = ends). [ ]: non-standard residue; d: D form. The star is where a group is joined. X1 = CC[C@H](C)CCCCC(=O)*; Dab = NCC[C@H](N)C(=O)O
METRIC NAME: level at 1 h (ng/mL)
Quick reminder: number only, in ng/mL, skip the unit.

Prompt: Supply recorded level at 1 h for CC[C@H](C)CCCCC(=O)N[C@@H](CCN)C(=O)N[C@H](C(=O)N[C@@H](CCN)C(=O)N[C@H]1CCNC(=O)[C@H]([C@@H](C)O)NC(=O)[C@H](CCN)NC(=O)[C@H](CCN)NC(=O)[C@H](CC(C)C)NC(=O)[C@@H](CC(C)C)NC(=O)[C@H](CCN)NC1=O)[C@@H](C)O [colistin] (X1-[Dab]T[Dab][Dab][Dab][dL]L[Dab][Dab]T; lactam 4-C) here.
Completion: 100

----------
Experiment: Colistin pharmacokinetics in epithelial lining fluid (ELF) after nebulized CMS in ventilated VARI patients
Type: in vivo, human
Settings: human, epithelial lining fluid (ELF), inhaled or intranasal, 2 mIU, ELF; 4 h post-nebulization; JN, n = 6; 2 mIU CMS inhaled; median (IQR); read-out: Ccolistin,ELF
Experimental: The study population consisted of 24 critically ill adult patients, admitted to the intensive care unit of the First Department of Pulmonology of the National and Kapodistrian University of Athens between June 2014 and November 2017. […] Colistin concentrations in plasma (Ccolistin,plasma) and epithelial lining fluid (Ccolistin,ELF) were measured through high performance liquid chromatography (HPLC)-fluorescence analysis. […]
Where a SMILES comes first, the peptide text is derived from it. Bridges are numbered along the chain shown (N, C = ends). [ ]: non-standard residue; d: D form. The star is where a group is joined. X1 = CC[C@H](C)CCCCC(=O)*; Dab = NCC[C@H](N)C(=O)O
METRIC NAME: level at 4 h (ng/mL)
Quick reminder: number only, in ng/mL, skip the unit.

Prompt: Supply recorded level at 4 h for CC[C@H](C)CCCCC(=O)N[C@@H](CCN)C(=O)N[C@H](C(=O)N[C@@H](CCN)C(=O)N[C@H]1CCNC(=O)[C@H]([C@@H](C)O)NC(=O)[C@H](CCN)NC(=O)[C@H](CCN)NC(=O)[C@H](CC(C)C)NC(=O)[C@@H](CC(C)C)NC(=O)[C@H](CCN)NC1=O)[C@@H](C)O [colistin] (X1-[Dab]T[Dab][Dab][Dab][dL]L[Dab][Dab]T; lactam 4-C) here.
Completion: 6420

----------
Test: Colistin pharmacokinetics in plasma after nebulized CMS in ventilated VARI patients
Format: in vivo, human
Details: human, inhaled or intranasal, 2 mIU, 6 h post-nebulization, JN, n = 6, 2 mIU CMS inhaled, median (IQR), read-out: Ccolistin, plasma
Method: The study population consisted of 24 critically ill adult patients, admitted to the intensive care unit of the First Department of Pulmonology of the National and Kapodistrian University of Athens between June 2014 and November 2017. […] Colistin concentrations in plasma (Ccolistin,plasma) and epithelial lining fluid (Ccolistin,ELF) were measured through high performance liquid chromatography (HPLC)-fluorescence analysis. […]
Where a SMILES comes first, the peptide text is derived from it. Bridges are numbered along the chain shown (N, C = ends). [ ]: non-standard residue; d: D form. The star is where a group is joined. X1 = CC[C@H](C)CCCCC(=O)*; Dab = NCC[C@H](N)C(=O)O
METRIC NAME: level at 6 h

Prompt: Supply recorded level at 6 h for CC[C@H](C)CCCCC(=O)N[C@@H](CCN)C(=O)N[C@H](C(=O)N[C@@H](CCN)C(=O)N[C@H]1CCNC(=O)[C@H]([C@@H](C)O)NC(=O)[C@H](CCN)NC(=O)[C@H](CCN)NC(=O)[C@H](CC(C)C)NC(=O)[C@@H](CC(C)C)NC(=O)[C@H](CCN)NC1=O)[C@@H](C)O [colistin] (X1-[Dab]T[Dab][Dab][Dab][dL]L[Dab][Dab]T; lactam 4-C) here.
Completion: 100 ng/mL

----------
Test: Colistin pharmacokinetics in plasma after nebulized CMS in ventilated VARI patients
Assay type: in vivo, human
Conditions: human, inhaled or intranasal, 2 mIU, 8 h post-nebulization, JN, n = 6, 2 mIU CMS inhaled, median (IQR), read-out: Ccolistin, plasma
Description: The study population consisted of 24 critically ill adult patients, admitted to the intensive care unit of the First Department of Pulmonology of the National and Kapodistrian University of Athens between June 2014 and November 2017. […] Colistin concentrations in plasma (Ccolistin,plasma) and epithelial lining fluid (Ccolistin,ELF) were measured through high performance liquid chromatography (HPLC)-fluorescence analysis. […]
Where a SMILES comes first, the peptide text is derived from it. Bridges are numbered along the chain shown (N, C = ends). [ ]: non-standard residue; d: D form. The star is where a group is joined. X1 = CC[C@H](C)CCCCC(=O)*; Dab = NCC[C@H](N)C(=O)O
METRIC NAME: level at 8 h
I'd appreciate it if you wrote the number followed by its unit.

Prompt: Supply recorded level at 8 h for CC[C@H](C)CCCCC(=O)N[C@@H](CCN)C(=O)N[C@H](C(=O)N[C@@H](CCN)C(=O)N[C@H]1CCNC(=O)[C@H]([C@@H](C)O)NC(=O)[C@H](CCN)NC(=O)[C@H](CCN)NC(=O)[C@H](CC(C)C)NC(=O)[C@@H](CC(C)C)NC(=O)[C@H](CCN)NC1=O)[C@@H](C)O [colistin] (X1-[Dab]T[Dab][Dab][Dab][dL]L[Dab][Dab]T; lactam 4-C) here.
Completion: 100 ng/mL
